Recorded measurements of Anti-CD28 Fab signal in the presence of CD28, one per entry
# TARGET_DESC: T1, Anti-CD28 Fab (SEQ ID NOs: 696, 697)
# T1 construct: Biotinylated and captured on neutravidin coated plates in the phage ELISA
# MEASUREMENT_PROTOCOL: phage binding ELISA on captured anti-CD28 Fab; competitor CD28 antigen
Where no end group is shown, it is not given here.
REPORTED_ENDPOINT: Anti-CD28 Fab signal in the presence of CD28

| BINDER | OBSERVED |
| --- | --- |
| ECHWSMWAVGHACF (cysteine pairing not given here; also: displayed as fusion to phage pIII, linker and pIII sequence not given here, Clonal phage supernatant; also called Peptide-83; not shown: fused to the pIII filament protein of the bacteriophage) [Phage-462] | 0.07 |
| DCPWLSGFSRPLLC (Clonal phage supernatant; also called Peptide-93; not shown: fused to the pIII filament protein of the bacteriophage) [Phage-472] | 0.07 |
| YWYCSPSIVRCVLV (Clonal phage supernatant; also called Peptide-89; not shown: fused to the pIII filament protein of the bacteriophage) [Phage-468] | 0.09 |
| YCAGHSPINIGKCL (cysteine pairing not given here; also: displayed as fusion to phage pIII, linker and pIII sequence not given here, Clonal phage supernatant; also called Peptide-84; not shown: fused to the pIII filament protein of the bacteriophage) [Phage-463] | 0.06 |
| WECLKYTEANACTY (Clonal phage supernatant; also called Peptide-76; not shown: fused to the pIII filament protein of the bacteriophage) [Phage-455] | 0.07 |
| WCWDYKLWVPTQCP (cysteine pairing not given here; also: displayed as fusion to phage pIII, linker and pIII sequence not given here, Clonal phage supernatant; also called Peptide-81; not shown: fused to the pIII filament protein of the bacteriophage) [Phage-460] | 0.14 |
| GCQYPWAFDAMSCP (cysteine pairing not given here; also: displayed as fusion to phage pIII, linker and pIII sequence not given here, Clonal phage supernatant; also called Peptide-80; not shown: fused to the pIII filament protein of the bacteriophage) [Phage-459] | 0.07 |
| WCWYYREWVPMTCP (cysteine pairing not given here; also: displayed as fusion to phage pIII, linker and pIII sequence not given here, Clonal phage supernatant; also called Peptide-88; not shown: fused to the pIII filament protein of the bacteriophage) [Phage-467] | 0.07 |
